# SYSTEM: isolated recombinant JAK2 kinase domain (Homo sapiens, UniProt O60674)
# Construct: isolated recombinant JAK1 and JAK2 kinase domain
# Sequence (O60674 849-1124 limits assumed): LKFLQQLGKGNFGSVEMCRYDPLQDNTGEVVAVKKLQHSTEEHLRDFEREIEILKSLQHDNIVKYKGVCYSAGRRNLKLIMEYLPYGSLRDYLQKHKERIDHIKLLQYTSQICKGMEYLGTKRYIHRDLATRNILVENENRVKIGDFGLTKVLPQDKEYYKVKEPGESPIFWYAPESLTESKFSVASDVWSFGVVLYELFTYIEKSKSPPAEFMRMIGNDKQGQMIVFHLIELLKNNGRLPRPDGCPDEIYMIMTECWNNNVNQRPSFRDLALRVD
# ASSAY_PROTOCOL: JAK enzyme assay, JAK2 kinase domain (Caliper LabChip)
# CONDITION_INFO: 0.2 nM JAK2, ATP 25 μM, Morrison tight binding model
ENDPOINT_LABEL: Ki (nM)

N#CCC1(n2cc(SC(F)F)cn2)CN(c2cccn3nc(Nc4cn[nH]c4)nc23)C1 = 1.4

a. CN1CCN(C(=O)Cn2cc(Nc3nc4c(N5CC(CC#N)(c6ccc(C(F)(F)F)cc6)C5)cccn4n3)cn2)CC1
b. N#CCC1(n2cc(C3CC3)cn2)CN(c2cccn3nc(Nc4cn[nH]c4)nc23)C1
Form field 'greater Ki' accepts a or b ; which applies? Mark your selection by writing its label.
a

###

# SYSTEM: isolated recombinant JAK2 kinase domain (Homo sapiens, UniProt O60674)
# Construct: isolated recombinant JAK1 and JAK2 kinase domain
# ASSAY_PROTOCOL: JAK enzyme assay, JAK2 kinase domain (Caliper LabChip)
# CONDITION_INFO: 0.2 nM JAK2, ATP 25 μM, Morrison tight binding model
pKi: −log10 of the molar value.
ENDPOINT_LABEL: pKi

# example entries with known answers
Cc1cc(C2(CC#N)CN(c3cccn4nc(Nc5cnn(CC(=O)N6CCN(C)CC6)c5)nc34)C2)ccc1Cl = 8.74
CN1CCN(C(=O)Cn2cc(Nc3nc4c(N5CC(CC#N)(n6cc(C7CC7)cn6)C5)cccn4n3)cn2)CC1 = 8.40
N#CCC1(c2cccc(Cl)c2)CN(c2cccn3nc(Nc4cnn(CC(=O)N5CCC(N6CCOCC6)CC5)c4)nc23)C1 = 9.22

A. CN1CCN(C(=O)Cn2cc(Nc3nc4c(N5CC(CC#N)(n6cc(F)cn6)C5)cccn4n3)cn2)CC1
B. COc1ccc(CCC2(CC#N)CN(c3cccn4nc(Nc5cnn(CC(=O)N6CCN(C)CC6)c5)nc34)C2)cc1
C. CCc1cnn(C2(CC#N)CN(c3cccn4nc(Nc5cnn(CC(F)F)c5)nc34)C2)c1
Order the records by pKi, with each subsequent value no larger than the one before. Would you mind listing the labels in the order requested?
C, B, A
(C: 9.40, B: 8.62, A: 8.40)

###

# SYSTEM: isolated recombinant JAK1 kinase domain (Homo sapiens)
# Construct: isolated recombinant JAK1 and JAK2 kinase domain
# ASSAY_PROTOCOL: JAK enzyme assay, JAK1 kinase domain (Caliper LabChip)
# CONDITION_INFO: 1.5 nM JAK1, ATP 25 μM, Morrison tight binding model
# Experimental: JAK Enzyme Assays were Carried Out as Follows: The activity of the isolated recombinant JAK1 and JAK2 kinase domain was measured by monitoring phosphorylation of a peptide derived from JAK3 (Val-Ala-Leu-Val-Asp-Gly-Tyr-Phe-Arg-Leu-Thr-Thr, fluorescently labeled on the N-terminus with 5-carboxyfluorescein) using the Caliper LabChip® technology (Caliper Life Sciences, Hopkinton, Mass.). […]
ENDPOINT_LABEL: Ki (nM)

a. Cc1cnn(C2(CC#N)CN(c3cccn4nc(Nc5cnn(CC(=O)N6CCN(C)CC6)c5)nc34)C2)c1 [Example 10]
b. CCc1cnn(C2(CC#N)CN(c3cccn4nc(Nc5cnn(CC(=O)N6CCC(N7CCOCC7)CC6)c5)nc34)C2)c1 [Example 29]
c. CSc1cnn(C2(CC#N)CN(c3cccn4nc(Nc5cn[nH]c5)nc34)C2)c1 [Example 144]
Could you please order the items by Ki, going from the lowest number to the highest? To answer, write out the labels according to the requested order.
c, a, b
(c: 0.1 nM, a: 0.4 nM, b: 0.6 nM)

###

# SYSTEM: isolated recombinant JAK2 kinase domain (Homo sapiens)
# Construct: isolated recombinant JAK1 and JAK2 kinase domain
# ASSAY_PROTOCOL: JAK enzyme assay, JAK2 kinase domain (Caliper LabChip)
# CONDITION_INFO: 0.2 nM JAK2, ATP 25 μM, Morrison tight binding model
ENDPOINT_LABEL: Ki (nM)

COCCN1CCN(C(=O)Cn2cc(Nc3nc4c(N5CC(CC#N)(n6cc(C(F)(F)F)cn6)C5)cccn4n3)cn2)CC1 [Example 94] = 1
CN(CC1(C#N)CC1)C1CCN(C(=O)Cn2cc(Nc3nc4c(N5CC(CC#N)(c6cccc(Cl)c6)C5)cccn4n3)cn2)CC1 [Example 100] = 1.5
CC(=O)N1CCN(CC2CCN(C(=O)Cn3cc(Nc4nc5c(N6CC(CC#N)(c7cccc(Cl)c7)C6)cccn5n4)cn3)CC2)CC1 [Example 95] = 1.3
COc1cnn(C2(CC#N)CN(c3cccn4nc(Nc5cnn(CC(=O)N6CCN(C)CC6)c5)nc34)C2)c1 [Example 28] = 1.4
CC(C)(C#N)CCN1CCN(C(=O)Cn2cc(Nc3nc4c(N5CC(CC#N)(n6cc(C(F)(F)F)cn6)C5)cccn4n3)cn2)CC1 [Example 107] = 1.1

###

# SYSTEM: isolated recombinant JAK1 kinase domain (Homo sapiens, UniProt P23458)
# Construct: isolated recombinant JAK1 and JAK2 kinase domain
# Sequence (P23458 875-1153 limits assumed): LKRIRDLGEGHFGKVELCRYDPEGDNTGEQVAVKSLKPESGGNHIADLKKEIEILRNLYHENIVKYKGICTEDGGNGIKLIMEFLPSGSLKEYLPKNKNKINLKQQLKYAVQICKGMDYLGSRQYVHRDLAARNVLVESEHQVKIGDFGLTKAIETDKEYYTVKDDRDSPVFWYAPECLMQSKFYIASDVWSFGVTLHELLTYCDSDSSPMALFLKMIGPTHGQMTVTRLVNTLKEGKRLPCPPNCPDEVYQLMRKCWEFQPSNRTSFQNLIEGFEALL
# ASSAY_PROTOCOL: JAK enzyme assay, JAK1 kinase domain (Caliper LabChip)
# Assay type: biochemical
# CONDITION_INFO: 1.5 nM JAK1, ATP 25 μM, Morrison tight binding model
ENDPOINT_LABEL: Ki (nM)

CCc1cnn(C2(CC#N)CN(c3cccn4nc(Nc5cnn(CC(=O)N6CCC(CN7CCN(CC(=O)N(C)C)CC7)CC6)c5)nc34)C2)c1 = 0.4
CCc1cnn(C2(CC#N)CN(c3cccn4nc(Nc5cnn(CC(=O)N6CCC(N(C)C7COC7)CC6)c5)nc34)C2)c1 = 0.4
CCc1cnn(C2(CC#N)CN(c3cccn4nc(Nc5cnn(CC(=O)N6CCC(NCC(C)(C)C#N)CC6)c5)nc34)C2)c1 = 0.3
CCc1cnn(C2(CC#N)CN(c3cccn4nc(Nc5ccc(CC(=O)N6CCN(C)CC6)cc5)nc34)C2)c1 = 0.7
